# Species: Homo sapiens
# method_description: Selectivity ratio of EC50 for S1P3 receptor (unknown origin) to EC50 for S1P1 receptor (unknown origin)
metric_name: Ratio EC50
Lab note: record the figure alone, no unit after it.

Given the compound CCCc1nc(-c2ccc(-c3ccc(CCC(N)(CO)COP(=O)(O)O)cc3)cc2)co1 (centres undefined) , what is its reported Ratio EC50?
36

How about this compound: CCc1nc(-c2ccc(-c3ccc(CCC(N)(CO)COP(=O)(O)O)cc3)cc2)co1 (centres undefined)
151

----------
Exercise: state measured EC50 for each of the molecules provided.
# system_under_test: UniProtKB Q99500
# Sequence (Q99500 whole entry): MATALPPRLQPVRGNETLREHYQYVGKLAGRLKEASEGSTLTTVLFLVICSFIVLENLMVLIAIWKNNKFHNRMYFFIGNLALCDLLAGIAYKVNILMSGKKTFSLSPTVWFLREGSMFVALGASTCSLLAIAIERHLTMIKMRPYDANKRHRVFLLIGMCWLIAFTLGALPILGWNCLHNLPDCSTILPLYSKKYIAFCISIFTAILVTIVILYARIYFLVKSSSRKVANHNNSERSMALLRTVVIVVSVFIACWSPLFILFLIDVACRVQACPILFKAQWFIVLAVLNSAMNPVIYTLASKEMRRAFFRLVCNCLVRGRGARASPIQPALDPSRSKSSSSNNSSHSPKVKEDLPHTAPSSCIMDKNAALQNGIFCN
# method_description: Agonist activity at S1P3 receptor (unknown origin) expressed in CHO cells incubated for 2 hrs by HTRF-IP1 assay

EC50 of CCc1nc(-c2ccc(-c3ccc(CCC(N)(CO)COP(=O)(O)O)cc3)cc2)co1 (stereo unspecified) on UniProtKB Q99500?
1.06 µM

How about this molecule: CCc1nc(-c2ccc(-c3ccc(CCC(N)(CO)CO)cc3)cc2)co1.Cl
> 10 µM

How about this molecule: CCCc1nc(-c2ccc(-c3ccc(CCC(N)(CO)COP(=O)(O)O)cc3)cc2)co1 (stereo unspecified)
0.484 µM

How about this molecule: CCCc1nc(-c2ccc(-c3ccc(CCC(N)(CO)CO)cc3)cc2)co1.Cl
> 10 µM

How about this molecule: CC(O)c1nc(-c2ccc(-c3ccc(CCC(N)(CO)CO)cc3)cc2)co1.Cl (stereo unspecified)
> 10 µM

How about this molecule: CC(O)Cc1nc(-c2ccc(-c3ccc(CCC(N)(CO)CO)cc3)cc2)co1.Cl (stereo unspecified)
> 10 µM
